Where do the numbers come from? From ChEMBL document CHEMBL1127590.

Target sequence: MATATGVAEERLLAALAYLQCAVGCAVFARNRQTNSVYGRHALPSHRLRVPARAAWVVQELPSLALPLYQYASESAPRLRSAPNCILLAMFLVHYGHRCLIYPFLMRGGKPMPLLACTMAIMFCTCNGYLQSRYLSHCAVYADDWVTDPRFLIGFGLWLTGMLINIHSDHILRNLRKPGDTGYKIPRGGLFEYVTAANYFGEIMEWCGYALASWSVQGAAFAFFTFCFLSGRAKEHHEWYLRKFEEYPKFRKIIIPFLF
reported.endpoint: pKi
The read-out pKi is expressed as -log10 of concentration in moles per litre.

**Q:** Please report the recorded pKi for CCCCCCCCC(=O)[C@H]1CCC2C3CNC4=CC(=O)CC[C@]4(C)C3CC[C@@]21C (some centres undefined) .
**A:** 9.00

**Q:** Returns the measured pKi for the input molecule. Input: CC(C)(C)NC(=O)[C@H]1CCC2C3CNC4=CC(=O)C=C[C@]4(C)C3CC[C@@]21C (some centres undefined)
**A:** 5.62

**Q:** Recorded pKi of C[C@]12CC[C@H]3[C@@H](CNC4=CC(=O)CC[C@@]43C)[C@@H]1CC[C@@H]2C(=O)OC1[C@H]2C[C@@H]3C[C@@H](C[C@H]1C3)C2 (some centres undefined) , please.
**A:** 8.16

**Q:** If you can, please state the reported pKi value of CN1CC2C(CC[C@@]3(C)C2CC[C@@H]3C(=O)NC(C)(C)C)[C@@]2(C)C=CC(=O)C=C12 (some centres undefined) .
**A:** 5.85

----------
# target.or.system: 3-oxo-5-alpha-steroid 4-dehydrogenase 1 (Homo sapiens)
pKi: −log10 of the molar value.
Please use class 1 whenever pKi is not below 7, and class 0 whenever it is.

**Q:** Decide: is the reported value of pKi for C[C@]12CCC(=O)C=C1NCC1C2CC[C@@]2(C)C1CC[C@@H]2C(=O)NC12CC3CC(CC(C3)C1)C2 (some centres undefined) equal to or greater than 7?
**A:** class 1

**Q:** Assess whether reported pKi for CC(C)CC(=O)[C@H]1CCC2C3CN(C)C4=CC(=O)CC[C@]4(C)C3CC[C@@]21C (some centres undefined) sits at 7 or higher.
**A:** class 1

**Q:** Is the recorded value of pKi equal to or greater than 7 for this molecule? CC(C)(C)NC(=O)[C@H]1CC[C@H]2[C@@H]3CC=C4C=C(C(=O)O)CC[C@]4(C)[C@H]3CC[C@]12C [EPRISTERIDE]
**A:** class 0

**Q:** Confirm if pKi reported for the molecule CCN(CC)C(=O)[C@H]1CCC2C3CN(Cc4ccccc4)C4=CC(=O)CC[C@]4(C)C3CC[C@@]21C (some centres undefined) is 7 or above.
**A:** class 0

**Q:** Test whether the molecule CCN(CC)C(=O)[C@H]1CCC2C3CN(C#N)C4=CC(=O)CC[C@]4(C)C3CC[C@@]21C (some centres undefined) records pKi of 7 or higher.
**A:** class 0

**Q:** Hi team, for CC1=C2N(C)CC3C(CC[C@@]4(C)C3CC[C@@H]4C(=O)NC34CC5CC(CC(C5)C3)C4)[C@@]2(C)CCC1=O (some centres undefined) , is the recorded pKi at or above 7?
**A:** class 1

**Q:** Could you verify whether the entry CCN(CC)C(=O)[C@H]1CCC2C3CN(C)C4=CC(=O)CC[C@]4(C)C3CC[C@@]21C (some centres undefined) shows pKi of no less than 7?
**A:** class 0

**Q:** Quick check, pKi >= 7? CN1CC2C(CC[C@@]3(C)C2CC[C@@H]3C(=O)NC23CC4CC(CC(C4)C2)C3)[C@@]2(C)C=CC(=O)C=C12 (some centres undefined)
**A:** class 0

----------
# Test system: Rattus norvegicus
# measurement.protocol: In vivo inhibition of T stimulated prostate growth in rats was reported after oral administration at a dose 10 mg/kg/day
# Type: functional, Prostate gland
reported.endpoint: Reduction (%)
Numeric answer only, unit % assumed.

**Q:** Which Reduction value belongs to CCN(CC)C(=O)[C@H]1CCC2C3CNC4=C(C)C(=O)CC[C@]4(C)C3CC[C@@]21C (some centres not stated) ?
**A:** 0

**Q:** Looking for the measured Reduction of CC1=C2NCC3C(CC[C@@]4(C)C3CC[C@@H]4C(=O)NC(C)(C)C)[C@@]2(C)CCC1=O (some centres not stated) , can you help?
**A:** 0

**Q:** Query: Reduction; subject: C[C@]12C=CC(=O)C=C1NCC1C2CC[C@@]2(C)C1CC[C@@H]2C(=O)NC12CC3CC(CC(C3)C1)C2 (some centres not stated)
**A:** 14

**Q:** State the recorded Reduction for this entry: CN1CC2C(CC[C@@]3(C)C2CC[C@@H]3C(=O)NC(c2ccccc2)c2ccccc2)[C@@]2(C)CCC(=O)C=C12 (some centres not stated)
**A:** 13

**Q:** Please report the recorded Reduction for C[C@]12CCC(=O)C=C1NCC1C2CC[C@@]2(C)C1CC[C@@H]2C(=O)NC12CC3CC(CC(C3)C1)C2 (some centres not stated) .
**A:** 38

**Q:** Record request: Reduction value, item CC1=C2NCC3C(CC[C@@]4(C)C3CC[C@@H]4C(=O)NC34CC5CC(CC(C5)C3)C4)[C@@]2(C)CCC1=O (some centres not stated)
**A:** 24

**Q:** # query: Reduction of entry CN1CC2C(CC[C@@]3(C)C2CC[C@@H]3C(=O)NC23CC4CC(CC(C4)C2)C3)[C@@]2(C)CCC(=O)C=C12 (some centres not stated)
**A:** 12

**Q:** Look up Reduction: CCN(CC)C(=O)[C@H]1CCC2C3CN(C)C4=CC(=O)CC[C@]4(C)C3CC[C@@]21C (some centres not stated)
**A:** 52

**Q:** Please give the measured Reduction for this molecule: C[C@]12C=CC(=O)C=C1NCC1C2CC[C@@]2(C)C1CC[C@@H]2C(=O)NC(c1ccccc1)c1ccccc1 (some centres not stated)
**A:** 0

**Q:** # Reduction lookup, item CN1CC2C(CC[C@@]3(C)C2CC[C@@H]3C(=O)NC(C)(C)C)[C@@]2(C)CCC(=O)C=C12 (some centres not stated)
**A:** 54

**Q:** Quick one: Reduction of CC1=C2NCC3C(CC[C@@]4(C)C3CC[C@@H]4C(=O)NC(c3ccccc3)c3ccccc3)[C@@]2(C)CCC1=O (some centres not stated) ?
**A:** 38

**Q:** // query Reduction value for entry CC(C)(C)NC(=O)[C@H]1CC[C@H]2[C@@H]3CC[C@H]4NC(=O)C=C[C@]4(C)[C@H]3CC[C@]12C [FINASTERIDE]
**A:** 100

----------
# measurement.protocol: In vitro inhibitory activity against human adrenal 3-beta hydroxy-delta 5-teroid isomerase
reported.endpoint: Ki (nM)
Quick note: give the figure in nM, leave out the unit.

**Q:** Item CCN(CC)C(=O)[C@H]1CCC2C3CNC4=CC(=O)CC[C@]4(C)C3CC[C@@]21C (stereo not given in full) has what recorded Ki?
**A:** 60

**Q:** // Ki lookup, key: CCN(CC)C(=O)[C@H]1CCC2C3CN(C(C)C)C4=CC(=O)CC[C@]4(C)C3CC[C@@]21C (stereo not given in full)
**A:** 1100

**Q:** Fill in: Ki of C[C@]12CCC(=O)C=C1NCC1C2CC[C@@]2(C)C1CC[C@@H]2C(=O)N1CCSCC1 (stereo not given in full) is ___
**A:** 31

**Q:** I am curious: what Ki value has been reported for CCN(CC)C(=O)[C@H]1CCC2C3CCNC4=CC(=O)CC[C@]4(C)C3CC[C@@]21C (stereo not given in full) ?
**A:** 1500

**Q:** Need Ki, item CCN(CC)C(=O)[C@H]1CCC2C3CNC4=C(C)C(=O)CC[C@]4(C)C3CC[C@@]21C (stereo not given in full)
**A:** 18

----------
Assign Ki to each entry below.
# measurement.protocol: In vitro inhibitory activity against human adrenal 3-beta hydroxy-delta 5-teroid isomerase
Note: unit nM is implicit; provide only the numeric part.

**Q:** Give the measured Ki of C[C@]12CCC(=O)C=C1NCC1C2CC[C@@]2(C)C1CC[C@@H]2C(=O)c1cccc2ccccc12 (some centres not stated) .
**A:** 7.8

**Q:** Ki for CC(C)CC(=O)[C@H]1CCC2C3CNC4=C(Br)C(=O)CC[C@]4(C)C3CC[C@@]21C (some centres not stated) ?
**A:** 2.3

**Q:** I would be grateful if you could share the reported Ki for C[C@]12CCC(=O)C=C1NCC1C2CC[C@@]2(C)C1CC[C@@H]2C(=O)CC1CCCCC1 (some centres not stated) .
**A:** 16

**Q:** Name the reported Ki value associated with the compound CON(C)C(=O)[C@H]1CCC2C3CNC4=CC(=O)CC[C@]4(C)C3CC[C@@]21C (some centres not stated)
**A:** 50

**Q:** Consider the compound CC(C)(C)NC(=O)[C@H]1CCC2C3CNC4=CC(=O)CC[C@]4(C)C3CC[C@@]21C (some centres not stated) and give its measured Ki.
**A:** 150

**Q:** What does the record list as Ki for CC1=C2NCC3C(CC[C@@]4(C)C3CC[C@@H]4C(=O)NC34CC5CC(CC(C5)C3)C4)[C@@]2(C)CCC1=O (some centres not stated) ?
**A:** 9

**Q:** Request the reported Ki associated with C[C@]12CCC(=O)C=C1NCC1C2CC[C@@]2(C)C1CC[C@@H]2C(=O)NN(c1ccccc1)c1ccccc1 (some centres not stated)
**A:** 160

**Q:** So what's the measured Ki for this one? CCN(CC)C(=O)[C@H]1CCC2C3CN(C(C)=O)C4=CC(=O)CC[C@]4(C)C3CC[C@@]21C (some centres not stated)
**A:** 34000

**Q:** For C[C@]12CCC(=O)C=C1NCC1C2CC[C@@]2(C)C1CC[C@@H]2C(=O)N1CCCCC1 (some centres not stated) , what is its reported Ki?
**A:** 110

**Q:** Form field: reported Ki of CCCN1CC2C(CC[C@@]3(C)C2CC[C@@H]3C(=O)N(CC)CC)[C@@]2(C)CCC(=O)C=C12 (some centres not stated)
**A:** 520

**Q:** Given CCN(CC)C(=O)[C@H]1CCC2C3CNC4=CC(=O)C(C)C[C@]4(C)C3CC[C@@]21C (some centres not stated) , state its recorded Ki.
**A:** 510

**Q:** I'd like to know its Ki. The compound in question is CN1CC2C(CC[C@@]3(C)C2CC[C@@H]3C(=O)NC(C)(C)C)[C@@]2(C)C=CC(=O)C=C12 (some centres not stated)
**A:** 62

**Q:** What does the record list as Ki for C[C@]12CCC(=O)C=C1NCC1C2CC[C@@]2(C)C1CC[C@@H]2C(=O)NC12CC3CC(CC(C3)C1)C2 (some centres not stated) ?
**A:** 78

**Q:** Reported Ki, compound C[C@]12C=CC(=O)C=C1NCC1C2CC[C@@]2(C)C1CC[C@@H]2C(=O)NC(c1ccccc1)c1ccccc1 (some centres not stated) : ____
**A:** 990

**Q:** # lookup: Ki of C[C@]12CCC(=O)C(Br)=C1NCC1C2CC[C@@]2(C)C1CC[C@@H]2C(=O)NC12CC3CC(CC(C3)C1)C2 (some centres not stated)
**A:** 13

**Q:** If you can, please state the reported Ki value of CC1=C2NCC3C(CC[C@@]4(C)C3CC[C@@H]4C(=O)NC(C)(C)C)[C@@]2(C)CCC1=O (some centres not stated) .
**A:** 9.2

**Q:** Could you tell me which Ki is on file for CC(C)(C)NC(=O)[C@H]1CC[C@H]2[C@@H]3CC=C4C=C(C(=O)O)CC[C@]4(C)[C@H]3CC[C@]12C [EPRISTERIDE] ?
**A:** 160
